Assay: NCI Yeast Anticancer Drug Screen. Data for the bub3 strain (AID 167)
Conditions: S. cerevisiae bub3 mutant strain, at 50.0 µM (retest, dose inferred, filed as 5.0), active compounds read high
About 79,000 compounds went through this panel and 15% of them were active in at least one assay; those are over-represented in the sample as a whole. Activity calls are given as the source filed them. No stated cut-off is given here; in the data, active means growth inhibition above about 70%; inactive means the rest.
Each entry below carries its reported growth inhibition.
endpoint.name: growth inhibition

compound	obs.value
CCCCOc1ccc2nc(C)cc(N=[N+]=[N-])c2c1	33% (inactive)
COc1ccc2nc3cccc([N+](=O)[O-])c3c(NCCNCCN(C)C)c2c1	50% (inactive)
OC(Cc1cccc2ccccc12)CN1CCC(c2ccccc2)CC1 (stereo unspecified)	87% (active)
NC(=S)N1N=C2c3ccccc3CC[C@@H]2[C@@H]1c1ccccc1	86% (active)
Cc1cc(Cl)ccc1NC(=O)/C(Cl)=C(/Cl)C(=O)O	37% (inactive)
CCCCCCCN1C(=O)c2ccccc2C1=O	34% (inactive)

###

Experiment: NCI Yeast Anticancer Drug Screen. Data for the rad18 strain (AID 177)
Conditions: S. cerevisiae rad18 mutant growth inhibition; at 11.0 µM; active compounds read high
The panel holds about 79,000 compounds, 15% with a hit somewhere; the sample as a whole holds those more often.

compound	units.label	growth inhibition
OC1(c2ccccc2)C2CC=CC2C1(c1ccccc1)c1ccccc1 (stereo unspecified)	%	-4
O=C(Cc1ccccc1)NNc1nc(NNC(=O)c2ccncc2)nc(Nc2ccc([N+](=O)[O-])cc2)n1	%	50
O=C1C=CC(=Nc2cccc3c2-c2ccccc2C3=O)O1	%	83
CN(C)CC(CN(C)C)C(=O)/C=C/c1ccc(Cl)cc1Cl	%	14
COc1cccc(/C=C2\S/C(=N/Nc3nc(-c4ccc([N+](=O)[O-])cc4)cs3)NC2=O)c1O	%	72
Cc1cc(OCc2nc(N)nc(N)c2-c2ccc(Cl)c(Cl)c2)ccc1[N+](=O)[O-]	%	-8
CCC(=O)C1=C(O)c2cc(OC)ccc2CC1C(=O)OC (stereo unspecified)	%	2
CCc1c(Cl)c(C)c(Cl)c(O)c1Cl	%	-19
COc1cc(C(=O)C=O)cc(OC)c1OC	%	-2
CC1(C2CC2)C(C#N)(C#N)C1(C#N)C#N	%	22
O=C(NCCNCCNC(=O)c1cc(-c2ccccc2)nc2ccccc12)c1cc(-c2ccccc2)nc2ccccc12	%	-3
CCN1CCC(O)(c2ccc(Oc3ccc(Cl)cc3)cc2)C(C(=O)c2ccc(Oc3ccc(Cl)cc3)cc2)C1 (stereo unspecified)	%	-1
CC1=NN(C(=O)c2ccccc2O)C(=O)/C1=C/c1ccco1	%	48
CCCCCCCCNCCCCCCCC	%	91
Nc1ccc(N=Nc2ccc(-c3ccc(O)cc3)cc2)c2ccc(S(=O)(=O)O)cc12	%	48
CC(C)S(=O)(=O)/C=C\S(=O)(=O)C(C)C	%	19
N#[N+]c1c([O-])c2ccccc2c2ccccc12	%	93
O=C1c2ccccc2C(=O)c2sc(Nc3ccccc3Cl)nc21	%	83
O=c1c2ccccc2nc(-c2ccc(Cl)cc2)n1O	%	97
O=C1C(=C2CCCC2)CCC1CN1CCCCC1 (stereo unspecified)	%	27
COc1cc2c(cc1OC)[C@@H](Nc1ccc(C#N)cc1)C1COC(=O)[C@@H]1C2c1cc(OC)c(O)c(OC)c1 (stereo partly specified)	%	-5
COc1ccc2c3c1OC(C)C31CC(=O)CCC1CC2 (stereo unspecified)	%	3
O=C1C[C@H]2[C@H](c3ccc(Br)cc3)[C@H]3C(=O)c4ccccc4NC(=O)[C@@H]3[C@@]2(O)c2ccccc2N1	%	29
COC(=O)C(=O)CC(=O)c1cccc(OC)c1	%	-1
O=c1c2ccccc2nc(-c2cccc([N+](=O)[O-])c2)n1O	%	88
BrC1C2CCC3OC3C12 (stereo unspecified)	%	95
O=c1cccccc1[O-].O=c1cccccc1[O-].O=c1cccccc1[O-].[Eu+3]	%	42
O=C1C(CCSc2ccccc2)C(=O)N(c2ccccc2)C1c1ccccc1 (stereo unspecified)	%	24
CCOC(=S)SSSC(=S)OCC	%	56
COc1cccc(C(NC2=NCCC=N2)c2cc3c(cc2O)OCO3)c1O (stereo unspecified)	%	9
CCN(CC)CC(=O)c1ccc2cc(Cl)c3ccccc3c2c1	%	99
CCCCCCCC/C=C\CCCCCCCCN	%	-13
O=C(O)C(=Cc1ccc(-c2ccccc2)cc1)C(=O)O	%	20
CC1(C)OC(=O)C(=Cc2ccc([N+](=O)[O-])s2)C(=O)O1	%	32
CN(C)CCCn1c2c3ccccc3ccc2c2oc(=O)c3ccccc3c21	%	47
CC(C)NCCCNc1c2ccccc2nc2cccc([N+](=O)[O-])c12	%	97
OB(O)c1ccccc1C#Cc1ccccc1	%	13
Cc1cc(O)c(C(C)C)cc1SC#N	%	59
CC(C(=O)N1C(=O)N(C(=O)C(C)C(O)c2ccccc2)C2CCCCC21)C(O)c1ccccc1 (stereo unspecified)	%	5
CC(C)(CN1CCCCC1)C(=O)CC(SCCS(=O)(=O)O)c1ccccc1 (stereo unspecified)	%	16
CC(C)OP(=O)(OC(C)C)/C(Cl)=N/Nc1ccc([N+](=O)[O-])cc1	%	85
O=C1CC(C(O)(C(F)(F)F)C(F)(F)Cl)CCC1C(O)(C(F)(F)F)C(F)(F)Cl (stereo unspecified)	%	76
COc1cc(NCCCCNCC(C)(C)C)c2ncccc2c1	%	7
c1cc(-c2sc(-c3ccncc3)c(-c3ccncc3)c2-c2ccncc2)ccn1	%	6
CC(=O)CCC1=C(C)C(=O)C(=O)C(C)=C1O	%	-3
O=C(Nc1cccs1)c1ccccc1	%	1

###

Test: NCI Yeast Anticancer Drug Screen. Data for the rad14 strain (AID 159);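 further: 0% = growth of vehicle-treated control cultures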
Settings: S. cerevisiae rad14 strain growth inhibition; at 11.0 µM
The panel holds about 79,000 compounds, 15% with a hit somewhere; the sample as a whole holds those more often. Active and inactive are the calls of the source. Rule as the data show it: active = growth inhibition above about 70%; inactive = the rest.
Outcome codes: 1.0 for active, 0.0 for inactive

compound	assigned.category
O=C(C#Cc1ccccc1)/C=C/c1ccccc1	0.0
O=[N+]([O-])c1ccc2nc(=S)[nH]n2c1	0.0
CCCCCCCCCCCCOCCOCCOCC(N)=O	0.0
O=C1CC(C(O)(C(F)(F)F)C(F)(F)Cl)CCC1C(O)(C(F)(F)F)C(F)(F)Cl (configuration not stated)	1.0
O=C(O)CNC(c1ccccc1)(c1ccccc1)c1ccccc1	0.0
COc1cc2c(cc1O)[C@H](C)C(c1ccccc1OC)O2 (some centres not stated)	0.0
CC1CN(/N=C\c2ccc([N+](=O)[O-])o2)C(=O)O1 (configuration not stated)	0.0
CC(=O)N1C=Cc2c(c(C)c3c([nH]c4ccccc43)c2C)C1	1.0
NC(CCCCCCCCCCCCC(N)C(=O)c1ccccc1)C(=O)c1ccccc1 (configuration not stated)	0.0
CCCCCCCCN1COCC(COc2ccccc2C)OC1 (configuration not stated)	0.0
O=C1/C(=C/c2ccc(Cl)c(Cl)c2)CNC/C1=C\c1ccc(Cl)c(Cl)c1	0.0
c1ccc2nc3c(nc2c1)sc1ccccc13	0.0

###

Each entry below carries its reported growth inhibition.
Assay: NCI Yeast Anticancer Drug Screen. Data for the bub3 strain (AID 167)
Settings: S. cerevisiae bub3 mutant strain, at 33.0 µM, active compounds read high
About 79,000 compounds went through this panel and 15% of them were active in at least one assay; those are over-represented in the sample as a whole.

molecule	growth inhibition [%]
Cc1ccc(NC(=O)CCC(=O)C(C)C(=O)c2ccccc2)c(C)c1 (configuration not stated)	-5
C=CCNC1=C2C[C@@H](C)C[C@H](OC)[C@H](O)[C@@H](C)/C=C(\C)[C@H](OC(N)=O)[C@@H](OC)/C=C\C=C(/C)C(=O)NC(=CC1=O)C2=O	95
O=C(CN(c1ccccc1)c1ccccc1)n1nnc2ccccc21	-19
C=C(C(=O)OC)N1C(=O)CC(C)C1=O (configuration not stated)	25
Nc1ccc(S(=O)(=O)Nc2nc3c(c(=O)[nH]2)CCCC3)cc1	99
CCCCCCCCSC1=C(Cl)C(=O)C(OC)=C(OC)C1=O	-15
O=c1cccccc1[O-].O=c1cccccc1[O-].O=c1cccccc1[O-].[Eu+3]	96
O=C(O)c1cc2c(cc1S(=O)(=O)O)C1C(C3C2C2(Cl)C(Cl)=C(Cl)C3(Cl)C2(Cl)Cl)C2(Cl)C(Cl)=C(Cl)C1(Cl)C2(Cl)Cl (configuration not stated)	74
CN(C)CCNc1ccc2ncn3c4ccc(O)cc4c(=O)c1c23	3
OC1(c2ccccc2)C2CC=CC2C1(c1ccccc1)c1ccccc1 (configuration not stated)	2
O=C1NC(c2cccc(OCc3ccccc3)c2)Nc2ccccc21 (configuration not stated)	4
CC1CN(/N=C\c2ccc([N+](=O)[O-])o2)C(=O)O1 (configuration not stated)	2
COC(=O)/C(C#N)=C\NC(=S)C(N)=S	99
Cc1cc(C)c(S(=O)(=O)c2ccc(Cl)cc2)c(C)c1	19
Cc1ccc(S(=O)(=O)N/N=C/C(Br)=C(/Br)C(=O)O)cc1	93
c1ccc(-c2cc(C3CO3)c3ccccc3n2)cc1 (configuration not stated)	41
N#[N+]c1c([O-])c2ccccc2c2ccccc12	54
S=C(NCc1ccccn1)N/N=C/c1ccccn1	99
Cc1cccc2c(NCCCN(C)C)c3c([N+](=O)[O-])ccc(C)c3nc12	90
COC(=O)C1=C(C(=O)OC)CC(n2nnc(C(=O)OC)c2C(=O)OC)=CC1	-6
CC(=O)O/N=C1C=C/C(=C(/C#N)c2ccccc2)C=C/1C	99
Cc1ccc(S(=O)(=O)NC(=O)C2C(=O)CC3(CCCCC3)CC2=O)cc1	72

meta.source: PubChem BioAssay (NCI)
